Test system: OVCAR-3 ovarian
Test: NCI-60 one-dose screen, 48 h (100 = growth as untreated, 0 = no growth, -100 = all killed)
Conditions: 10 µM unless noted
The panel holds about 83,000 compounds, 20% with a hit somewhere; the sample as a whole holds those more often.
growth values by entry
measureName: growth (%)

>  <compound>
COc1ccc(-c2nn(-c3ccc(NC(=O)c4cc(Cl)cc(Cl)c4)cc3)cc2-c2ccncc2)cc1Cl

>  <measureName>
growth

>  <uom>
%

>  <measuredNumber>
64.1

$$$$
>  <compound>
CCN(CC)C(=O)C1CCN(C(=O)c2ccccc2)CC1

>  <measureName>
growth

>  <uom>
%

>  <measuredNumber>
104

$$$$
>  <compound>
CCN(CC)CCNC(=O)c1c(C)[nH]c(/C=C2\C(=O)Nc3cc(NC(=O)NC(=O)c4ccc(OC)cc4F)ccc32)c1C

>  <measureName>
growth

>  <uom>
%

>  <measuredNumber>
111

$$$$
>  <compound>
CCN(CC)CCNCC(O)Cc1ccc(OC)cc1 (stereo unspecified)

>  <measureName>
growth

>  <uom>
%

>  <measuredNumber>
108

$$$$
>  <compound>
Cc1nccc2c3ccc(OCc4cn(-c5ccc(Br)cc5)nn4)cc3n(CCCc3ccccc3)c12

>  <measureName>
growth

>  <uom>
%

>  <measuredNumber>
104

$$$$
>  <compound>
O=C(Nc1ccc(-n2cc(-c3ccncc3)c(-c3ccc(O)c(Cl)c3)n2)cc1)c1ccc(Cl)c(C(F)(F)F)c1

>  <measureName>
growth

>  <uom>
%

>  <measuredNumber>
4.18

$$$$
>  <compound>
CCNc1cc(S(=O)(=O)O)ccc1C

>  <measureName>
growth

>  <uom>
%

>  <measuredNumber>
116

$$$$
>  <compound>
CC(C)C(=O)Nc1nc2c(s1)CCCc1ccn(S(=O)(=O)c3ccccc3)c1-2

>  <measureName>
growth

>  <uom>
%

>  <measuredNumber>
107

$$$$
>  <compound>
COc1ccc(/C(Cl)=N/N=C(\Cl)c2cc(OC)c(OC)c(OC)c2)cc1OC(C)=O

>  <measureName>
growth

>  <uom>
%

>  <measuredNumber>
101

$$$$
>  <compound>
COc1ccc(C[C@H](N)C(=O)N[C@@H]2[C@@H](CO)OC(n3cnc4c(N(C)C)ncnc43)[C@@H]2O)cc1 (stereo partly specified)

>  <measureName>
growth

>  <uom>
%

>  <measuredNumber>
-94.7

$$$$
>  <compound>
CCc1cccc(-c2ccccc2)c1

>  <measureName>
growth

>  <uom>
%

>  <measuredNumber>
109

$$$$
